The values you see were collected from patent US20250228832A1.

For each of the compounds below, state its τ (agonist pharmacology).
# target-or-test-system: human M5 receptor (Homo sapiens, UniProt P08912)
# Construct: expressed in transfected cells
# Sequence (P08912 whole entry): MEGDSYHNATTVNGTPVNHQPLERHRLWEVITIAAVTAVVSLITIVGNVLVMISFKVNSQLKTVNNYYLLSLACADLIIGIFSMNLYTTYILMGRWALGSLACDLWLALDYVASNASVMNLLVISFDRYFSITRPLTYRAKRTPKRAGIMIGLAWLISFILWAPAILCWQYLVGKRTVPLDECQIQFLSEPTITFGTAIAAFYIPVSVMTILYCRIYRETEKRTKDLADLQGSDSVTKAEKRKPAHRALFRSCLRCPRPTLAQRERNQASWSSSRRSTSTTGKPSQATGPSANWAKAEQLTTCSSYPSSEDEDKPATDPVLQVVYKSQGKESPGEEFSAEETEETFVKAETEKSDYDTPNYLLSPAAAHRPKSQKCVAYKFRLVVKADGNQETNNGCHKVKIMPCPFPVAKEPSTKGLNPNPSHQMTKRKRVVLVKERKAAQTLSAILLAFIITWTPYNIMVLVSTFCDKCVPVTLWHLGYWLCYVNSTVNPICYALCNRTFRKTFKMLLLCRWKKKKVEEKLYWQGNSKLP
# test-summary: HTRF IP-One curve shift assay, M5
# Assay type: cell-based
# details: M5; M4 PAM Emraclidine
# Method: HTRF IP-One assays were performed using frozen cell aliquots prepared from CHO-K1 cell lines stably expressing human M1, M3, or M5 receptors. Cells were frozen following typical cell freezing protocols. […] Six μL of IP-1 detection reagents (IP-One Gq HTRF kit, Cisbio Cat #62IPAPEJ) were dispensed to the cells. […] Then, plates were read on an Envision plate reader following the Cisbio guidelines. Raw data for all assays was transmitted directly from plate readers into the Beacon database for processing. […]
One number for each entry.

Below: 3 compounds and their reported τ (agonist pharmacology).
compound | readout-value
CCCCCCCOc1nsnc1C1=CCCCN1C | 0.0
CCCCCCOc1nsnc1C1=CCCN(C)C1 [xanomeline, reference compound] | 0.1
CC1OC2(CS1)CN1CCC2CC1 (stereo not shown) [cevimeline, Cevimeline, reference compound] | 0.1

Query compound follows.
Quick note, τ (agonist pharmacology) for "CCCCCOc1nsnc1C1=CCCCN1C" landed at 0.1

----------
# target-or-test-system: human M3 receptor (Homo sapiens, UniProt P20309)
# Construct: expressed in transfected cells
# Sequence (P20309 whole entry): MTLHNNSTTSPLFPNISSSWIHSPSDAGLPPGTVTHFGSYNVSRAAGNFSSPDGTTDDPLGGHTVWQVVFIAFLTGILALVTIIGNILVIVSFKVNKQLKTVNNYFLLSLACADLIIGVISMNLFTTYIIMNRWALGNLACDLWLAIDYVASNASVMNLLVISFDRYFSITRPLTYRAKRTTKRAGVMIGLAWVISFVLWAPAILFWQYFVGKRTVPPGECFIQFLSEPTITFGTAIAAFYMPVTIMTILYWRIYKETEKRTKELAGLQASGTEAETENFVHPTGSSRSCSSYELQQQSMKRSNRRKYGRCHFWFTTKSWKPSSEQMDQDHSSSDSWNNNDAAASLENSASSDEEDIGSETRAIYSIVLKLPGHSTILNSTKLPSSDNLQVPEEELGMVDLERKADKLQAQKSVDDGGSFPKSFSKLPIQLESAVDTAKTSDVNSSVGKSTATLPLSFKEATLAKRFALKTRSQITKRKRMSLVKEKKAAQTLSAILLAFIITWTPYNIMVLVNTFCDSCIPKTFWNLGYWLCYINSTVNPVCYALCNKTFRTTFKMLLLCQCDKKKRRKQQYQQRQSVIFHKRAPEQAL
# test-summary: HTRF IP-One curve shift assay, M3
# Format: cell-based
# details: MK-4710 concentration 370 nM
assay-endpoint: pEC50
Answers are plain numbers, as −log10 of the molar value.

Quick note, pEC50 for CC1OC2(CS1)CN1CCC2CC1 (stereo not shown) [cevimeline, Cevimeline, reference compound] landed at 5.01

----------
# target-or-test-system: human M4 receptor (Homo sapiens)
# Construct: expressed in transfected cells
# test-summary: SPA GTP (GTPgS) binding curve shift assay, M4
# Assay type: biochemical
# details: MK-4710 concentration 41.2 nM, read-out: Emax
assay-endpoint: Emax

Below: 3 molecules and their reported Emax.
molecule | target-or-test-system | readout-value
CCCCCOc1nsnc1C1=CCCCN1C | human M4 receptor (Homo sapiens) | 27.3%
CCCCCCOc1nsnc1C1=CCCN(C)C1 [xanomeline, reference compound] | human M4 receptor (Homo sapiens) | 29.7%
CC1OC2(CS1)CN1CCC2CC1 (stereo not shown) [cevimeline, Cevimeline, reference compound] | human M4 receptor (Homo sapiens) | 20.2%

Query molecule follows.
Quick note, Emax for "CCCCCCCOc1nsnc1C1=CCCCN1C" landed at 35.9%

----------
# target-or-test-system: human M2 receptor (Homo sapiens, UniProt P08172)
# Sequence (P08172 whole entry): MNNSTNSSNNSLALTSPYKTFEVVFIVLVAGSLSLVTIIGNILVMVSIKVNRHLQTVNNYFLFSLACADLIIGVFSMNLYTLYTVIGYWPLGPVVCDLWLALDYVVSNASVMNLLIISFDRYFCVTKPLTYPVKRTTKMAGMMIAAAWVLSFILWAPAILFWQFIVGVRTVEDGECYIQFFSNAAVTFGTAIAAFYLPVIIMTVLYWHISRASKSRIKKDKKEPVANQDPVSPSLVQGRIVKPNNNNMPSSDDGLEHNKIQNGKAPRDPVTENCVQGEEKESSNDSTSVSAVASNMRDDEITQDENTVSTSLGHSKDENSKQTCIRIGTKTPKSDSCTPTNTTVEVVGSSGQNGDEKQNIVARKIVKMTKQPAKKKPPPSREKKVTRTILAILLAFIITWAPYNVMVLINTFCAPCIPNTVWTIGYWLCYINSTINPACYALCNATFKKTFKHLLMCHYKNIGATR
# test-summary: SPA GTP (GTPgS) binding curve shift assay, M2
# Type: biochemical
# details: M2; MK-4710 concentration 3330 nM
assay-endpoint: EC50 (nM)
Answers are plain numbers, in nM.

Quick note, EC50 for "CCCCCOc1nsnc1C1=CCCCN1C" landed at 10.3

----------
# target-or-test-system: human M3 receptor (Homo sapiens)
# Construct: expressed in transfected cells
# test-summary: HTRF IP-One curve shift assay, M3
# Assay type: cell-based
# details: Emraclidine concentration 0 nM
assay-endpoint: Emax
Report as: number unit

molecule | Emax
CC1OC2(CS1)CN1CCC2CC1 (stereo not shown) [cevimeline, Cevimeline, reference compound] | 97.9%
CCCCCCCOc1nsnc1C1=CCCCN1C | 63.5%
CCCCCOc1nsnc1C1=CCCCN1C | 42.7%

Query molecule follows.
Quick note, Emax for CCCCCCOc1nsnc1C1=CCCN(C)C1 [xanomeline, reference compound] landed at 77.3%

----------
# target-or-test-system: human M5 receptor (Homo sapiens)
# Construct: expressed in transfected cells
# test-summary: HTRF IP-One curve shift assay, M5
# Format: cell-based
# details: M5; Emraclidine concentration 0 nM
For each of the compounds below, state its Emax.
One number for each entry, in %.

compound | Emax, %
CCCCCCOc1nsnc1C1=CCCN(C)C1 [xanomeline, reference compound] | 81.14
CCCCCCCOc1nsnc1C1=CCCCN1C [KTX-593] | 63.6
CCCCCOc1nsnc1C1=CCCCN1C [KTX-517] | 41.68

Query compound follows.
Quick note, Emax for CC1OC2(CS1)CN1CCC2CC1 (stereo not shown) [cevimeline, Cevimeline, reference compound] landed at 90.54

----------
# target-or-test-system: human M1 receptor (Homo sapiens)
# Construct: expressed in transfected cells
# Sequence (P11229 whole entry): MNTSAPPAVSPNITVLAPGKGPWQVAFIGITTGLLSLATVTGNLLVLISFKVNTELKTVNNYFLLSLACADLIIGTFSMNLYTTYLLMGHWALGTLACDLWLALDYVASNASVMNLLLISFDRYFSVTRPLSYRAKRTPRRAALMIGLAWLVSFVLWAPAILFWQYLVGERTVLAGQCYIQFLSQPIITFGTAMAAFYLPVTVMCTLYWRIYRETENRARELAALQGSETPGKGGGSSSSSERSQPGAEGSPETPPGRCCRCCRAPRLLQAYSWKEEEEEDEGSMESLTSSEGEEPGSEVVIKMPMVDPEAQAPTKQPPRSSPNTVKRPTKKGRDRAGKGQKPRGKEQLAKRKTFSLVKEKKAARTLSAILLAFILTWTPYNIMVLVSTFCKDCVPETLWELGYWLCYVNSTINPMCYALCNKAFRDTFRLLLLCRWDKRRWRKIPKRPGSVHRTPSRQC
# test-summary: HTRF IP-One curve shift assay, M1
# Assay type: cell-based
# details: MK-4710 concentration 41.2 nM
assay-endpoint: EC50 (nM)
One number for each entry, in nM.

Quick note, EC50 for "CCCCCCCOc1nsnc1C1=CCCCN1C" landed at 7.6

----------
# target-or-test-system: human M5 receptor (Homo sapiens, UniProt P08912)
# Construct: expressed in transfected cells
# test-summary: HTRF IP-One curve shift assay, M5
# Type: cell-based
# details: M5; Emraclidine concentration […]; read-out: Emax
For each of the compounds below, state its Emax at […].
One number for each entry, in %.

compound | assay-endpoint | readout-value
CCCCCCOc1nsnc1C1=CCCN(C)C1 [xanomeline, reference compound] | Emax at […] | 79.4

List the reported Emax at […] of each compound below.
1. CCCCCOc1nsnc1C1=CCCCN1C
2. CC(=O)OCC[N+](C)(C)C [acetylcholine, reference compound]
3. CCCCCCCOc1nsnc1C1=CCCCN1C

Marked response:
44.1
72.3
67.1

Emax at […] for human M5 receptor (Homo sapiens, UniProt P08912) with input CC1OC2(CS1)CN1CCC2CC1 (centres unmarked) [cevimeline, Cevimeline, reference compound] equals 102

----------
# target-or-test-system: human M2 receptor (Homo sapiens, UniProt P08172)
# test-summary: SPA GTP (GTPgS) binding curve shift assay, M2
# Type: biochemical
# details: M2; MK-4710 concentration 123 nM
assay-endpoint: EC50 (µM)
Numbers only, in µM.

Quick note, EC50 for CCCCCOc1nsnc1C1=CCCCN1C [KTX-517] landed at 0.0148

----------
# target-or-test-system: human M2 receptor (Homo sapiens, UniProt P08172)
# test-summary: SPA GTP (GTPgS) binding curve shift assay, M2
# Format: biochemical
# details: M2; MK-4710 concentration 3330 nM; read-out: Emax
assay-endpoint: Emax (%)
Give bare numbers, in %.

Below: 3 compounds and their reported Emax.
compound | target-or-test-system | units-symbol | Emax
CCCCCCCOc1nsnc1C1=CCCCN1C [KTX-593] | human M2 receptor (Homo sapiens, UniProt P08172) | % | 77.6
CC1OC2(CS1)CN1CCC2CC1 (stereo not shown) [cevimeline, Cevimeline, reference compound] | human M2 receptor (Homo sapiens, UniProt P08172) | % | 68.2
CCCCCCOc1nsnc1C1=CCCN(C)C1 [xanomeline, reference compound] | human M2 receptor (Homo sapiens, UniProt P08172) | % | 75.7

Query compound follows.
Emax for human M2 receptor (Homo sapiens, UniProt P08172) with input CCCCCOc1nsnc1C1=CCCCN1C [KTX-517] equals 78.7

----------
# target-or-test-system: human M4 receptor (Homo sapiens, UniProt P08173)
# Construct: expressed in transfected cells
# Sequence (P08173 1-479): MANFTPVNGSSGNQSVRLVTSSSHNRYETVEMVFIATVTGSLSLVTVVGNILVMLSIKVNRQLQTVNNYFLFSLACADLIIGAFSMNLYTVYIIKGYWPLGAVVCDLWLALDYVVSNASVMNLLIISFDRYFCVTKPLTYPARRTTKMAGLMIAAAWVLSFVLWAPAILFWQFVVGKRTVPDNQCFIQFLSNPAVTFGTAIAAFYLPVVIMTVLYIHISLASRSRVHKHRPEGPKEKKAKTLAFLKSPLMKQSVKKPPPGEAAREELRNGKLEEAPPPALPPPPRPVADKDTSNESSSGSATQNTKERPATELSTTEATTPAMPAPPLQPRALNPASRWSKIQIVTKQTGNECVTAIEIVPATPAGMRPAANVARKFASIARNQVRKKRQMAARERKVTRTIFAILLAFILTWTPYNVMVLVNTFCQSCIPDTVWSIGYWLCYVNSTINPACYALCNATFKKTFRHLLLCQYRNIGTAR
# test-summary: SPA GTP (GTPgS) binding curve shift assay, M4
# Assay type: biochemical
# details: MK-4710 concentration 123 nM, read-out: Emax
assay-endpoint: Emax (%)
Give bare numbers, in %.

compound | target-or-test-system | Emax [%]
CCCCCCCOc1nsnc1C1=CCCCN1C | human M4 receptor (Homo sapiens, UniProt P08173) | 41.8

List the reported Emax of each compound below.
1. CCCCCOc1nsnc1C1=CCCCN1C
2. CC1OC2(CS1)CN1CCC2CC1 (stereo not shown) [cevimeline, Cevimeline, reference compound]
3. CCCCCCOc1nsnc1C1=CCCN(C)C1 [xanomeline, reference compound]

Marked response:
1: 34.3; 2: 26.6; 3: 38.5

----------
For each of the molecules below, state its Emax.
# target-or-test-system: human M5 receptor (Homo sapiens, UniProt P08912)
# Construct: expressed in transfected cells
# test-summary: HTRF IP-One curve shift assay, M5
# Type: cell-based
# details: M5; Emraclidine concentration 1110 nM; read-out: Emax
Give bare numbers, in %.

Below: 3 molecules and their reported Emax.
molecule | assay-endpoint | readout-value
CCCCCCOc1nsnc1C1=CCCN(C)C1 [xanomeline, reference compound] | Emax | 81.9
CCCCCCCOc1nsnc1C1=CCCCN1C | Emax | 66.9
CCCCCOc1nsnc1C1=CCCCN1C | Emax | 69.3

Query molecule follows.
Quick note, Emax for CC1OC2(CS1)CN1CCC2CC1 (stereo not shown) [cevimeline, Cevimeline, reference compound] landed at 103
